- Study Target: 5-hydroxytryptamine receptor 2A (Homo sapiens)
- Assay: 5-hydroxytryptamine receptor 2A (HTR2A) small molecule antagonists, cell-based qHTS assay (AID 1963586); further: nearly all actives have a fitted effect of over 45% in size
- Experimental Setup: HTR2A-CHO cells, DOI-induced calcium flux, fluorescence; series mostly up to 61.5 µM
- Description: National Center for Advancing Translational Sciences [NCATS] Division of Preclinical Innovation [DPI] U.S. Environmental Protection Agency [EPA] National Institutes of Environmental Health Sciences [NIEHS] National Toxicology Program [NTP] […] HTR2A-CHO cells were dispensed at 2000 cells/3uL/well in 1536-well black-clear bottom plates using a Multidrop Dispenser. […] The fluorescence intensity in the plates was measured using FDSS 7000EX kinetic plate reader for 3 min at 1 sec intervals.
Results filed as inconclusive are left out. Calls of active or inactive are those of the source. The call rests on the fitted dose curve.
The reply should name one outcome from active, inactive

Inquiry: Hi, do you know how "OC[C@H](Cc1cccc(O)c1)[C@H](CO)Cc1cccc(O)c1" came out in this test?
Reply text: inactive

Inquiry: Would you mind telling me which call this test gave "CCCCCN=C(N)N/N=C/c1c[nH]c2ccc(OC)cc12" ?
Reply text: active

Inquiry: Given "CC(C)=CCC/C(C)=C/COC=O" , state the outcome it received in this test.
Reply text: inactive

Inquiry: Just curious, what result did OC(CCN1CCCC1)(c1ccccc1)C1CCCCC1 (stereo unspecified) get here?
Reply text: inactive

Inquiry: Status in this test for "CCCCCCCCN" ?
Reply text: inactive

Inquiry: Entry "C=C(C)C(=O)OCC(C)(C)COC(=O)C(=C)C" : call = ?
Reply text: inactive

Inquiry: Which outcome was entered for the compound "CC(C)Nc1cccnc1N1CCN(C(=O)c2cc3cc(NS(C)(=O)=O)ccc3[nH]2)CC1" in this test?
Reply text: inactive

Inquiry: Which outcome was entered for the compound "O=Cc1c2ccccc2c(Cl)c2ccccc12" in this test?
Reply text: inactive

Inquiry: Entry CC(C)=CC1CC(C)CCO1 (stereo unspecified) : call = ?
Reply text: inactive

Inquiry: Hi team, can someone confirm the assay call for "CCOC(=O)COc1cc(-n2ncc(C(F)(F)F)c(C)c2=O)c(F)cc1Cl" ?
Reply text: inactive

Inquiry: # outcome recorded in this test, key = C=CC(=O)OCC(O)COc1ccccc1 (stereo unspecified)
Reply text: inactive

Inquiry: // return assay outcome for "COc1ccc(C(=O)Nc2nc3ccccc3c(NCc3ccccc3)c2C#N)cc1"
Reply text: inactive

Inquiry: // return assay outcome for "CCCCCCCC(C)=O"
Reply text: inactive

Inquiry: Could you kindly confirm the outcome this assay logged for "CC1=CC[C@H](C(C)C)C=C1" ?
Reply text: inactive

Inquiry: What did this assay record as the result for OC[C@@H](O)C(O)[C@@H](O)CO (stereo partly specified) ?
Reply text: inactive

Inquiry: What is the recorded call for this compound in the test? "CCN(CC)CCSC(=O)C(c1ccccc1)c1ccccc1"
Reply text: active

Inquiry: How did this test come out for CCCCC(CC)COC(=O)CCCCCCCCC(=O)OCC(CC)CCCC (stereo unspecified) ?
Reply text: inactive

Inquiry: Which result was noted for this compound in the test: CC1CCc2c(N3CCC(O)CC3)c(F)cc3c(=O)c(C(=O)O)cn1c23 (stereo unspecified)
Reply text: inactive

Inquiry: Hello, I am checking results. What call was entered for "COc1ccc2nc(SCc3ncc(C)c(OC)c3C)[nH]c2c1" ?
Reply text: inactive

Inquiry: Short answer needed: outcome of this test for "O=C(N[C@@H](Cc1ccccc1)[C@@H](O)C(=O)N1C[C@@H](O)[C@@H](O)C1)c1cc2cc(Cl)ccc2[nH]1" ?
Reply text: inactive

Inquiry: Kindly provide the recorded test outcome for the following compound: "Cc1cc(C(=O)O)ccc1[N+](=O)[O-]"
Reply text: inactive

Inquiry: // outcome(item) with item = "COc1ccc2nc(NC(=O)Nc3ccccc3)sc2c1"
Reply text: inactive

Inquiry: # fetch the recorded call for CN(C)[C@@H]1C(=O)C(C(=O)NCN2CCCC2)=C(O)[C@@]2(O)C(=O)C3=C(O)c4c(O)cccc4[C@@](C)(O)C3C[C@@H]12 (stereo partly specified) here
Reply text: inactive

Inquiry: Each compound tested received a call. Report the one for "CCCCN(CCCC)C(=O)N(CCCC)CCCC" .
Reply text: inactive

Inquiry: Each compound tested received a call. Report the one for "CO[Si](CCCS)(OC)OC" .
Reply text: inactive

Inquiry: GET /call?item= "CCOC(=O)c1ccc(NC(=O)CN2CCCCC2)cc1" returns the recorded outcome of this test.
Reply text: inactive

Inquiry: Assay outcome for "Nc1cc(S(=O)(=O)O)ccc1O" : what was it?
Reply text: inactive

Inquiry: Recorded test outcome, item "COC(=O)c1ccc(I)cc1S(=O)(=O)NC(=O)Nc1nc(C)nc(OC)n1"
Reply text: inactive

Inquiry: Which outcome was entered for the compound C/C(=C\C(C)CC(C)CC(C)C)C1CC(=O)OC1=O (stereo unspecified) in this test?
Reply text: inactive

Inquiry: Field: outcome | Entry: CCC(Cc1ccccc1)(C(=O)c1ccc(N2CCOCC2)cc1)N(C)C (stereo unspecified)
Reply text: inactive

Inquiry: What did this assay record as the result for "O=c1c(O)c(O)c1=O" ?
Reply text: inactive

Inquiry: Could you check what this test reported for CC(O)c1ccccc1 (stereo unspecified) ?
Reply text: inactive

Inquiry: Dear colleague, could you share the recorded outcome for "O=c1[nH]ncc2ccccc12" when you have a moment?
Reply text: inactive

Inquiry: What call does the record list for "COC(=O)[C@H]1[C@H]2C[C@@H]3c4[nH]c5cc(OC)ccc5c4CCN3C[C@H]2C[C@@H](OC(=O)COc2ccc(OC)cc2)[C@@H]1OC" ?
Reply text: inactive

Inquiry: What classification did "CCCCCCCCCCCCCC(=O)OCC" end up with in this test?
Reply text: inactive

Inquiry: Please let me know the test result on file for "ONc1ccccc1" .
Reply text: inactive

Inquiry: Just curious, what result did CCOCC(O)COc1ccc(NC(=O)CC[S+](C)C)cc1 (stereo unspecified) get here?
Reply text: inactive

Inquiry: Please let me know the test result on file for O=C(C1CCCCC1)N1CC(=O)N2CCCc3ccccc3C2C1 (stereo unspecified) .
Reply text: inactive

Inquiry: What is the recorded call for this compound in the test? CC(CC(=O)O)CC(C)(C)C (stereo unspecified)
Reply text: inactive

Inquiry: Which outcome was entered for the compound "O=c1cccccc1O" in this test?
Reply text: inactive

Inquiry: # lookup: test call for NC(=O)COCCN1CCN(C(c2ccccc2)c2ccc(Cl)cc2)CC1 (stereo unspecified)
Reply text: inactive

Inquiry: Hi, sorry to bother you, what did the test record for "COC(=O)c1ccc(OC)cc1" ?
Reply text: inactive

Inquiry: Recorded call for "CCC(=O)Oc1ccc2c(c1)CC[C@@H]1[C@@H]2CC[C@@]2(C)[C@H]1C[C@@H](OC(=O)CC)[C@@H]2OC(=O)CC" ?
Reply text: inactive

Inquiry: Could you kindly confirm the outcome this assay logged for CC(C)[N+](C)(C)CC(O)COc1cccc2ccccc12 (stereo unspecified) ?
Reply text: inactive

Inquiry: Which outcome was entered for the compound "OC(CCN1CCCCC1)(c1ccccc1)c1ccccc1" in this test?
Reply text: inactive

Inquiry: # lookup: test call for O=C1OC(=O)C2CCCCC12 (stereo unspecified)
Reply text: inactive

Inquiry: State the result this test recorded for "Cc1cc(N)c(S(=O)(=O)O)cc1Cl" .
Reply text: inactive

Inquiry: Status in this test for "CO/N=C(\C(=O)N[C@@H]1C(=O)N2C(C(=O)O)=C(CSc3nc(=O)c(O)nn3C)CS[C@H]12)c1csc(N)n1" ?
Reply text: inactive

Inquiry: Dear all, I need the recorded test outcome for C=COCC1CCC(COC=C)CC1 (stereo unspecified) , thank you.
Reply text: inactive

Inquiry: How did this test come out for "Clc1nc(C(Cl)(Cl)Cl)c(Cl)c(Cl)c1Cl" ?
Reply text: inactive

Inquiry: Per the records of this test, what outcome belongs to "CCCCCCCCCC#N" ?
Reply text: inactive

---

- Assay: Nuclear factor erythroid 2-related factor 2/antioxidant responsive element (Nrf2/ARE) small molecule agonists: luciferase reporter gene qHTS assay in human keratinocytes (AID 1919969); further: nearly all actives have a fitted effect of over 35% in size
- Experimental Setup: KeratinoSens HaCaT ARE-luciferase, luminescence, 24 h; series mostly up to 92.4 µM
Records with an inconclusive call do not appear. Active and inactive are the calls of the source. The call rests on the fitted dose curve.
A correct response names exactly one class from active, inactive

Inquiry: GET /call?item= CCCCC(CC)COC(=O)CCCCCCCCC(=O)OCC(CC)CCCC (stereo not drawn) returns the recorded outcome of this test.
Reply text: inactive

Inquiry: Fill in: this test's call for "CCCCCCCCCCOS(=O)(=O)O" is ___
Reply text: inactive

Inquiry: Which result was noted for this compound in the test: "C1COC(NC(C2CC2)C2CC2)=N1"
Reply text: inactive

Inquiry: Returns: the outcome recorded for "CCOC(=O)CC#N" in this assay.
Reply text: inactive

Inquiry: Outcome? "O=C(CCCN1CCN(c2ccccn2)CC1)c1ccc(F)cc1"
Reply text: inactive

Inquiry: Lab log entry: "OC[C@@H](O)[C@@H](O)CO" — outcome as called in the assay?
Reply text: inactive

Inquiry: Would you mind telling me which call this test gave CCC(Cc1ccccc1)(C(=O)c1ccc(N2CCOCC2)cc1)N(C)C (stereo not drawn) ?
Reply text: active

Inquiry: What classification did CC(=O)OC1CCCCC1C(C)(C)C (stereo not drawn) end up with in this test?
Reply text: inactive

Inquiry: Test call, this compound: "C=CN1CCCCCC1=O"
Reply text: inactive

Inquiry: Which outcome was entered for the compound "Cc1cc(C(C)(C)C)c(O)c(C)c1Cn1c(=O)n(Cc2c(C)cc(C(C)(C)C)c(O)c2C)c(=O)n(Cc2c(C)cc(C(C)(C)C)c(O)c2C)c1=O" in this test?
Reply text: inactive

Inquiry: Short answer needed: outcome of this test for "CCn1c2ccccc2c2cc([N+](=O)[O-])ccc21" ?
Reply text: inactive

Inquiry: Per the records of this test, what outcome belongs to "CC(=O)C(C)=O" ?
Reply text: inactive

Inquiry: So what was the verdict on "CCCCC(CC)(CO)CO" in this test?
Reply text: inactive
